Test system: human platelet rich plasma (PRP)
Assay: ADP induced platelet aggregation assay
Conditions: Homo sapiens, Platelet, 5 min, read-out: PA IC50 (μM) @ 10 μM ADP, human PRP, 10 μM ADP, AUC at 5 minute
assayMetric: IC50 (µM)
Give bare numbers, in µM.

// known answers, use as guide
The recorded IC50 for entry "CC1(C)CN(c2ccccc2NC(=O)Nc2nc3ccc(F)cc3s2)c2c(O)cc(F)c(-c3nc4ccc(Cl)cc4s3)c21" equals 0.6

The recorded IC50 for entry "CC(C)Cc1nc(-c2c(F)cc(O)c3c2C(C)(C)CN3c2ccccc2NC(=O)Nc2ccc(OC(F)(F)F)cc2)co1" equals 0.4

The recorded IC50 for entry "CC(C)c1nc(-c2c(F)cc(O)c3c2C(C)(C)CN3c2ccccc2NC(=O)Nc2ccc(OC(F)(F)F)cc2)co1" equals 0.52

The recorded IC50 for entry "CC1(C)CN(c2ccccc2NC(=O)Nc2csc(C(F)(F)F)n2)c2c(O)cc(F)c(-c3ccc(C(F)(F)F)cc3)c21" equals 0.16

The recorded IC50 for entry "CN(C)Cc1cccc(-c2c(F)cc(O)c3c2C(C)(C)CN3c2ccccc2NC(=O)Nc2ccc(OC(F)(F)F)cc2)c1" equals 0.7

Switching to the query record.
The recorded IC50 for entry "CC1(C)CN(c2ccccc2NC(=O)Nc2ccc(OC(F)(F)F)cc2)c2c(O)ccc(-c3nc4cccnc4o3)c21" equals 0.99

Cited source for all entries: patent US9540323B2
